Hey, just so you know, these numbers are from patent US6590107B1.

system: CEM cells; assay: Toxicity in CEM cells; assay type: cell-based, human
Assign IC50 to each entry below.

Data point: Nc1nc(=O)n(C2C[Se]C(CO)O2)cc1F (centres unmarked) ; IC50 = > 100 µM

Data point: Nc1ccn(C2C[Se]C(CO)O2)c(=O)n1 (centres unmarked) ; IC50 = > 100 µM

* * *

Assign IC50 to each entry below.
test system: uninfected human PBM cells; experiment: Toxicity: growth of mitogen-stimulated uninfected human PBM cells; format: cell-based; conditions: mitogen-stimulated uninfected human PBM cells; read-out: Toxicity (IC50 μM) PMB

Data point: Nc1ccn(C2C[Se]C(CO)O2)c(=O)n1 (centres unmarked) ; IC50 = > 100 µM

Data point: Nc1nc(=O)n(C2C[Se]C(CO)O2)cc1F (centres unmarked) ; IC50 = > 100 µM

* * *

tested on: HIV-1 (strain LAV); assay type: cell-based; details: Table 5, anti-HIV activity in PBM cells; read-out: EC50
Assign EC50 to each entry below.

Data point: Nc1ccn(C2C[Se]C(CO)O2)c(=O)n1 (racemic) [(±)-β-Se-ddC] ; EC50 = 2.69 µM

Data point: Nc1ccn([C@H]2C[Se][C@@H](CO)O2)c(=O)n1 [(−)-β-Se-ddC] ; EC50 = 0.88 µM

Data point: Nc1nc(=O)n(C2C[Se]C(CO)O2)cc1F (racemic) [(±)-β-Se-FddC] ; EC50 = 5.55 µM

Data point: Nc1nc(=O)n(C2C[Se]C(CO)O2)cc1F (stereo not drawn) [(+)-β-Se-FddC] ; EC50 = 41.9 µM

Data point: Nc1nc(=O)n(C2C[Se]C(CO)O2)cc1F (stereo not drawn) [(−)-β-Se-FddC] ; EC50 = 0.21 µM

Data point: Nc1ccn([C@@H]2C[Se][C@H](CO)O2)c(=O)n1 [(+)-β-Se-ddC] ; EC50 = 3.39 µM
